Biological target: T1, human Factor XIIa-beta (human, UniProt P00748 354-615, limits assumed)
T1 construct: Bought from Enzyme Research Laboratories; also called FXIIa beta; FXIIa-beta
T1 sequence: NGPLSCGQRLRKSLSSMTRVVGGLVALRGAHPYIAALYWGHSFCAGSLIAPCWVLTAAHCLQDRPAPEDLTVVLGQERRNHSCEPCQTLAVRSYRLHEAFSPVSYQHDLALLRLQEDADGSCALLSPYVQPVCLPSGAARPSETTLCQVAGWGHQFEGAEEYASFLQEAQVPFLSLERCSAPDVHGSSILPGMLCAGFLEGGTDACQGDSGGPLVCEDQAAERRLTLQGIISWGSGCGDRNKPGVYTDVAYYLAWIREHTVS
Assay: SPR (Biacore), purified IgG4 captured on anti-human IgG, FXIIa beta 0-40 nM, 1:1 fit, 25 C
QUANTITY_NAME: koff (s⁻¹)
Report only the number, with the unit s⁻¹ understood.

Worked cases, answers included:
BINDER: VR112 (antibody, V domains shown) VH: EVQLLESGGGLVQPGGSLRLSCAASGFTFSKYIMQWVRQAPGKGLEWVSGINVPVQGTVYADSVKGRFTISRDNSKNTLYLQMNSLRAEDTAVYYCARALPRSGYLISPHYYYYALDVWGQGTTVTVSS VL: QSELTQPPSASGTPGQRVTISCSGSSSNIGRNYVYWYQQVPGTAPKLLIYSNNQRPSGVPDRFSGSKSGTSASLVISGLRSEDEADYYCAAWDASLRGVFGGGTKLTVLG
koff (s⁻¹): 4.3e-05
//
BINDER: monoclonal antibody 3F7 (fully human IgG4/lambda) (antibody, V domains shown, also called 3F7 mAb; MAb 3F7) VH: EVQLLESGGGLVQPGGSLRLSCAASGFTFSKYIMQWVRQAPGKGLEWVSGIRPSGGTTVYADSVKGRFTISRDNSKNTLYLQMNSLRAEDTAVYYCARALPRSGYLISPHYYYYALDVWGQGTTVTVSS VL: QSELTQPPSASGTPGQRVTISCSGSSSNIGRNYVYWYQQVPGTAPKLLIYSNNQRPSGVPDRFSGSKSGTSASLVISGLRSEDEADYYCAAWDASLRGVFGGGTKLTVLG
koff (s⁻¹): 0.0011

Endpoint output: koff of VR24 (antibody, V domains shown) VH: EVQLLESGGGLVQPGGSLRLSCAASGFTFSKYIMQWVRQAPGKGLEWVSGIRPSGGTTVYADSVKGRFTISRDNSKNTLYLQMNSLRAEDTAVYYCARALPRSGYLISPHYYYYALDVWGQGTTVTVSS VL: QSVLTQPPSASGTPGQRVTISCSGSSEMTVHHYVYWYQQLPGTAPKLLIYSNNQRPSGVPDRFSGSKSGTSASLAISGLRSEDEADYYCAAWDASLRGVFGGGTKLTVLG . Value?
6.4e-05

Endpoint output: koff of VR110 (antibody, V domains shown) VH: EVQLLESGGGLVQPGGSLRLSCAASGFTFSKYIMQWVRQAPGKGLEWVSGIDMPTKGTVYADSVKGRFTISRDNSKNTLYLQMNSLRAEDTAVYYCARALPRSGYLISPHYYYYALDVWGQGTTVTVSS VL: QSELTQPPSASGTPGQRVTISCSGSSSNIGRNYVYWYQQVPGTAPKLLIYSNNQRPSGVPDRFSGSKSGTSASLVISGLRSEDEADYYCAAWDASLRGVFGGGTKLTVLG . Value?
3.9e-05

Endpoint output: koff of VR115 (antibody, V domains shown) VH: EVQLLESGGGLVQPGGSLRLSCAASGFTFSKYIMQWVRQAPGKGLEWVSGIDIPTKGTVYADSVKGRFTISRDNSKNTLYLQMNSLRAEDTAVYYCARALPRSGYLISPHYYYYALDVWGQGTTVTVSS VL: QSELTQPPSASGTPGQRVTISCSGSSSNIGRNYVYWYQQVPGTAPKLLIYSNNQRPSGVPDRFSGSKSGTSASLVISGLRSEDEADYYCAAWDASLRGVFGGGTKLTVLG . Value?
2.5e-05

Endpoint output: koff of VR119 (antibody, V domains shown) VH: EVQLLESGGGLVQPGGSLRLSCAASGFTFSKYIMQWVRQAPGKGLEWVSGINVPLYGTVYADSVKGRFTISRDNSKNTLYLQMNSLRAEDTAVYYCARALPRSGYLISPHYYYYALDVWGQGTTVTVSS VL: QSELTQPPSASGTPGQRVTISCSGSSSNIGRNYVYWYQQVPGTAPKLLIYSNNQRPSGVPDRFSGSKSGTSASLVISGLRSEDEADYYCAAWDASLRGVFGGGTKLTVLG . Value?
5.9e-05
